- TESTED TARGET: T1, SEZ6 Sushi Domain 4 (amino acids 750-813) on yeast (human, UniProt Q53EL9 769-832)
- T1 construct: yeast display
- METHOD DESCRIPTION: yeast display, flow cytometry;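 note: antibody binding to individual SEZ6 domains displayed on yeast, measured by flow cytometry, antibody at 50 nM purified or hybridoma supernatant diluted 1:2, 90 min on ice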
RECORDED ENDPOINT: binding result

Entry SC17.140 (antibody, V domains shown, murine mAb) VH: EVQLQQSGPELMKPGASVKMSCKASGYTFTDYNMHWVKQNQGKSLEWIGEINPNTGGTGYNQKFKGKATLTVDKFSSTAFIELRSLTSEDSAIYYCTRGGYDHYWYFDVWGAGTTVTVSS VL: QIVLTQSPAIMSASPGEKVTMTCSASSSVSYMHWYQQKSGTSPKRWIYDTSKLASGVPARFSGSGSGTSYSLTISSMEAEDAATYYCQQWSSTPPTFGSGTKLEIK , binding result reported as binds

Entry SC17.121 (antibody, V domains shown, murine mAb) VH: EVQLQQSGPELMKPGASVKMSCKASGYTFTDHNIHWVKQHQGKSLEWIGEINPNTGGTGYNQKFQGKATMTVDKSSSTAYMELRSLTSEDSAVYYCVRGLYFFDYWGQGTTLTVSS VL: QIVLTQSPAIMSASPGEKVTMTCSASSSVSYMHWYQQKSGTSPKRWIYDTSKLASGVPARFSGSGSGTSYSLTISSMETEDAATYYCQQWSNTPPTFGSVTKLEIK , binding result reported as binds
